Assign melting point to each entry below.

Lab note: each compound below needs its melting point filled in.
1. CN(C(=O)Cc1ccc2c(c1)NC(=O)C2)C(CN1CCCC1)c1cccc(OCC(=O)O)c1.Cl (stereo not shown) [Example 87]
2. CN(C(=O)Cc1ccc2oc(=O)[nH]c2c1)[C@H](CN1CCC(O)C1)c1cccc(OCC(=O)OC(C)(C)C)c1 (stereo in doubt) [Example 77]
3. O=C(Cc1ccc2oc(=O)n(Cc3ccc(-c4nnn[nH]4)cc3)c2c1)N[C@H](CN1CC[C@H](O)C1)c1ccccc1 [Example 106]
4. CN(C(=O)Cc1ccc2oc(=O)n(Cc3ccccc3)c2c1)[C@H](CN1CCCC1)c1cccc(OCC(=O)OC(C)(C)C)c1 [Example 68]
5. CN(C(=O)Cc1ccc2ccc(=O)[nH]c2c1)[C@H](CN1CCCC1)c1ccccc1 [Example 49]

Response:
1. 169 to 171 °C
2. 124 to 125 °C
3. 296 to 297 °C
4. 111 to 113 °C
5. 170 to 172 °C

Batch request: melting point per item, same order as input.
1. CN(C(=O)Cc1ccc2c(c1)NC(=O)C2)[C@H](CN1CC[C@H](O)C1)c1cccc(-c2nn[nH]n2)c1 [Example 110]
2. CN(C(=O)Cc1ccc2oc(=O)[nH]c2c1)[C@H](CN1CCC(O)C1)c1cccc(OCC(=O)O)c1.Cl (stereo in doubt) [Example 96]
3. CN(C(=O)Cc1ccc2oc(=O)n(CC(=O)O)c2c1)[C@H](CN1CC[C@@H](O)C1)C1CCCCC1 [Example 97]
4. CN(C(=O)Cc1ccc2oc(=O)n(C)c2c1)[C@H](CN1CCC(O)C1)c1cccc(-c2nn[nH]n2)c1 (stereo in doubt) [Example 107]
5. CN(C(=O)Cc1ccc2oc(=O)n(Cc3cccc(C(N)=O)c3)c2c1)[C@H](CN1CC[C@H](O)C1)c1ccccc1 [Example 88]

Response:
1: 208 to 210 °C; 2: 95 to 96 °C; 3: 233 to 234 °C; 4: 130 to 132 °C; 5: 181 to 183 °C

Origin of the recorded values: patent US9487510B2
